Target: DNA gyrase (Escherichia coli, UniProt P0AES4+P0AES6)
Assay: Inhibition of Escherichia coli DNA gyrase by supercoiling plate assay
OBSERVABLE: pIC50
Numbers only, as −log10 of the molar value.

> print(dat)
                                   molecule  value.measured
1  Cc1[nH]c(C(=O)Nc2ccc(-c3noc(=O)[nH]3)cc2N2CCCC(N)C2)c(Cl)c1Cl.Cl (centres undefined)            8.60

Below are some molecules; for each one, tell me its pIC50.
1. Cc1[nH]c(C(=O)Nc2ccc(-c3nnn[nH]3)cc2N2CCCC(CN)C2)c(Cl)c1Cl.Cl (centres undefined)
2. Cc1[nH]c(C(=O)Nc2ccc(-c3noc(=O)[nH]3)cc2N2CCNCC2)c(Cl)c1Cl.Cl
3. Cc1[nH]c(C(=O)Nc2ccc(-c3nnn[nH]3)cc2N2CCCC(CNC(=O)OC(C)(C)C)C2)c(Cl)c1Cl (centres undefined)

1: 8.67; 2: 8.22; 3: 6.55

###

Test system: Pseudomonas aeruginosa
Assay: Antibacterial activity against Pseudomonas aeruginosa ATCC 27853 assessed as inhibition of bacterial growth by broth microdilution metho
Format: functional
OBSERVABLE: MIC

Below are some compounds; for each one, tell me its MIC.
1. Cc1[nH]c(C(=O)Nc2ccc(-c3noc(=O)[nH]3)cc2N2CCN(C(=O)OC(C)(C)C)CC2)c(Cl)c1Cl
2. Cc1[nH]c(C(=O)Nc2ccc(-c3noc(=O)[nH]3)cc2NC2CCNCC2)c(Cl)c1Cl.Cl
3. Cc1[nH]c(C(=O)Nc2ccc(-n3nn[nH]c3=O)cc2N2CCN(c3ccccc3)CC2)c(Cl)c1Cl

1: > 64 µg/mL; 2: > 64 µg/mL; 3: > 32 µg/mL

Below are some compounds; for each one, tell me its MIC.
1. Cc1[nH]c(C(=O)Nc2ccc(-c3noc(=O)[nH]3)cc2N2CCCC(CN)C2)c(Cl)c1Cl.Cl (stereo not drawn)
2. Cc1[nH]c(C(=O)Nc2ccc(-c3noc(=O)[nH]3)cc2N2CCCC(N)C2)c(Cl)c1Cl.Cl (stereo not drawn)
3. Cc1[nH]c(C(=O)Nc2ccc(-c3noc(=O)[nH]3)cc2N2CCNCC2)c(Cl)c1Cl.Cl
4. Cc1[nH]c(C(=O)Nc2ccc(-n3nn[nH]c3=O)cc2N2CCC(N)CC2)c(Cl)c1Cl.Cl
5. Cc1[nH]c(C(=O)Nc2ccc(-c3noc(=O)[nH]3)cc2NC2CCN(C(=O)OC(C)(C)C)CC2)c(Cl)c1Cl

1: > 64 µg/mL; 2: > 64 µg/mL; 3: > 64 µg/mL; 4: > 32 µg/mL; 5: > 64 µg/mL

###

Assay: Metabolic stability in human liver microsomes assessed as half life at 1 uM preincubated for 10 mins followed by NADPH addition and measured after 5 to 60 mins by LC-MS/MS analysis
Format: ADME, Microsome
Conditions: time 15-70 min
Please go through the items and note down their half-life at 1 µM.
Numbers only, in h.

> print(dat)
                                   compound  value.measured
1  C[C@]12CC[C@H]3[C@@H](CCC4=CC(=O)CC[C@@]43C)[C@@H]1CC[C@@H]2O [TESTOSTERONE]           0.378

Below are some compounds; for each one, tell me its half-life at 1 µM.
1. Cc1[nH]c(C(=O)Nc2ccc(-c3noc(=O)[nH]3)cc2N2CCCC2)c(Cl)c1Cl
2. Cc1[nH]c(C(=O)Nc2ccc(-n3nn[nH]c3=O)cc2N2Cc3ccccc3C2)c(Cl)c1Cl
3. Cc1[nH]c(C(=O)Nc2ccc(-c3noc(=O)[nH]3)cc2N2CCC(NC(=O)OC(C)(C)C)CC2)c(Cl)c1Cl

[1.31, 1.33, 1.27]

###

Molecular target: DNA gyrase (Escherichia coli, UniProt P0AES4+P0AES6)
Test: Inhibition of Escherichia coli DNA gyrase by supercoiling plate assay
pIC50: −log10 of the molar value.
Would you mind classing the entries by pIC50? Ranges: low-valued (below 7), mid-valued (7 to below 8), high-valued (8 or more)

Solved entries:
> print(dat)
                                   molecule                              assay.target        label
1  Cc1[nH]c(C(=O)Nc2ccc(-n3nn[nH]c3=O)cc2N2CC[C@H](N)C2)c(Cl)c1Cl.Cl  DNA gyrase (Escherichia coli, UniProt P0AES4+P0AES6)  high-valued
2  Cc1[nH]c(C(=O)Nc2ccc(-c3noc(=O)[nH]3)cc2N2CCC(N)CC2)c(Cl)c1Cl.Cl  DNA gyrase (Escherichia coli, UniProt P0AES4+P0AES6)  high-valued
3  Cc1[nH]c(C(=O)Nc2ccc(-c3nnn[nH]3)cc2N2CCOCC2)c(Cl)c1Cl  DNA gyrase (Escherichia coli, UniProt P0AES4+P0AES6)   mid-valued
4  Cc1[nH]c(C(=O)Nc2ccc(-c3noc(=O)[nH]3)cc2N2CCCC(CN)C2)c(Cl)c1Cl.Cl (configuration not stated)  DNA gyrase (Escherichia coli, UniProt P0AES4+P0AES6)  high-valued
5  Cc1[nH]c(C(=O)Nc2ccc(C(=O)NS(C)(=O)=O)cc2N2CCOCC2)c(Cl)c1Cl  DNA gyrase (Escherichia coli, UniProt P0AES4+P0AES6)   low-valued

For this molecule, which bin applies? Cc1[nH]c(C(=O)Nc2ccc(-n3nn[nH]c3=O)cc2N2CCC(NC(=O)OC(C)(C)C)CC2)c(Cl)c1Cl mid-valued

For this molecule, which bin applies? Cc1[nH]c(C(=O)Nc2ccc(-n3nn[nH]c3=O)cc2N2CC[C@H](NC(=O)OC(C)(C)C)C2)c(Cl)c1Cl low-valued

For this molecule, which bin applies? Cc1[nH]c(C(=O)Nc2ccc(-n3nn[nH]c3=O)cc2N2CCC(N)CC2)c(Cl)c1Cl.Cl high-valued

###

Test system: Enterococcus faecium
Test: Antibacterial activity against vancomycin-resistant Enterococcus faecium ATCC 700221 assessed as inhibition of bacterial growth by broth microdilution method
Format: functional
Please go through the items and note down their MIC.
Answers are plain numbers, in µg/mL.

Reference set, count: 4
> print(dat)
                                   molecule  unit.name  value.measured
1  Cc1[nH]c(C(=O)Nc2ccc(-c3noc(=O)[nH]3)cc2NC2CCN(C(=O)OC(C)(C)C)CC2)c(Cl)c1Cl      µg/mL           0.063
2  Cc1[nH]c(C(=O)Nc2ccc(-n3nn[nH]c3=O)cc2N2Cc3ccccc3C2)c(Cl)c1Cl      µg/mL             0.5
3  Cc1[nH]c(C(=O)Nc2ccc(-c3noc(=O)[nH]3)cc2N2CCOCC2)c(Cl)c1Cl      µg/mL             0.5
4  Cc1[nH]c(C(=O)Nc2ccc(-c3noc(=O)[nH]3)cc2N2CCN(c3ccccc3)CC2)c(Cl)c1Cl      µg/mL               4

From here, focus on the item given below.
Lookup: MIC / Enterococcus faecium / Cc1[nH]c(C(=O)Nc2ccc(-c3noc(=O)[nH]3)cc2N2CCCC(N)C2)c(Cl)c1Cl.Cl (stereo not drawn) 8

###

System: Escherichia coli
Test: Inhibition of Escherichia coli DNA topoisomerase-IV assessed as residual activity at 10 uM by relaxation plate assay relative to control
Please go through the items and note down their Activity.
Numbers only, in %.

> print(dat)
                                smiles.data  value.measured
1  Cc1[nH]c(C(=O)Nc2ccc(C(=O)NS(C)(=O)=O)cc2N2CCOCC2)c(Cl)c1Cl              37

Below are some compounds; for each one, tell me its Activity.
1. Cc1[nH]c(C(=O)Nc2ccc(-c3noc(=O)[nH]3)cc2N2CCN(c3ccccc3)CC2)c(Cl)c1Cl
2. Cc1[nH]c(C(=O)Nc2ccc(-n3nn[nH]c3=O)cc2N2CCC(NC(=O)OC(C)(C)C)CC2)c(Cl)c1Cl
3. Cc1[nH]c(C(=O)Nc2ccc(-n3nn[nH]c3=O)cc2N2CCN(c3ccccc3)CC2)c(Cl)c1Cl

1. 71
2. 63
3. 104

###

Please go through the items and note down their MIC.
Tested on: Pseudomonas aeruginosa
Assay: Antibacterial activity against Pseudomonas aeruginosa ATCC 27853 assessed as inhibition of bacterial growth by broth microdilution metho
Format: functional

Below are some compounds; for each one, tell me its MIC.
1. Cc1nnc(-c2ccc(NC(=O)c3[nH]c(C)c(Cl)c3Cl)c(OC(C)C)c2)o1
2. Cc1[nH]c(C(=O)Nc2ccc(-c3noc(=O)[nH]3)cc2N2CCCC2)c(Cl)c1Cl
3. Cc1[nH]c(C(=O)Nc2ccc(-n3nn[nH]c3=O)cc2N2Cc3ccccc3C2)c(Cl)c1Cl
4. Cc1[nH]c(C(=O)Nc2ccc(-c3noc(=O)[nH]3)cc2N2CCN(c3ccccc3)CC2)c(Cl)c1Cl

1. > 64 µg/mL
2. > 64 µg/mL
3. > 64 µg/mL
4. > 64 µg/mL

Below are some compounds; for each one, tell me its MIC.
1. Cc1[nH]c(C(=O)Nc2ccc(-n3nn[nH]c3=O)cc2N2CC[C@H](N)C2)c(Cl)c1Cl.Cl
2. Cc1[nH]c(C(=O)Nc2ccc(-c3noc(=O)[nH]3)cc2N2CCOCC2)c(Cl)c1Cl
3. Cc1[nH]c(C(=O)Nc2ccc(-c3noc(=O)[nH]3)cc2N2CCC(NC(=O)OC(C)(C)C)CC2)c(Cl)c1Cl
4. Cc1[nH]c(C(=O)Nc2ccc(-c3noc(=O)[nH]3)cc2N2CCC(N)CC2)c(Cl)c1Cl.Cl
5. Cc1[nH]c(C(=O)Nc2ccc(-c3nnn[nH]3)cc2N2CCOCC2)c(Cl)c1Cl
6. Cc1[nH]c(C(=O)Nc2ccc(-c3nnn[nH]3)cc2N2CCCC(CN)C2)c(Cl)c1Cl.Cl (stereo not given)

> 32 µg/mL
> 32 µg/mL
> 64 µg/mL
> 64 µg/mL
> 64 µg/mL
> 64 µg/mL

Measured values drawn from ChEMBL document CHEMBL6071157 for this set.
